# assay_remarks: Selectivity ratio, CC50 for human HeLa cells to IC50 for Plasmodium falciparum RKL09
# Type: ADME, cell-based
# test_parameters: read-out: Ratio CC50/IC50
recorded_metric: selectivity ratio
Would you mind answering with just the numeric figure?

[[record]]
molecule = "O=C(c1cccnc1)N1N=C(c2ccc(O)cc2)CC1c1ccccc1Br (stereo not given)"
recorded_metric = "selectivity ratio"
obs_value = 59.6

[[record]]
molecule = "O=C(c1cccnc1)N1N=C(c2ccc(O)cc2)CC1c1cccc([N+](=O)[O-])c1 (stereo not given)"
recorded_metric = "selectivity ratio"
obs_value = 8.85

[[record]]
molecule = "Cc1ccc(C2CC(c3ccc(O)cc3)=NN2C(=O)c2cccnc2)cc1 (stereo not given)"
recorded_metric = "selectivity ratio"
obs_value = 24.6

[[record]]
molecule = "COc1cc(C2CC(c3ccc(O)cc3)=NN2C(=O)c2cccnc2)cc(OC)c1OC (stereo not given)"
recorded_metric = "selectivity ratio"
obs_value = 19.5

[[record]]
molecule = "O=C(c1cccnc1)N1N=C(c2ccc(O)cc2)CC1c1ccccc1 (stereo not given)"
recorded_metric = "selectivity ratio"
obs_value = 14.4


Exercise: Look up selectivity ratio for this molecule: Cc1ccccc1C1CC(c2ccc(O)cc2)=NN1C(=O)c1cccnc1 (stereo not given)
Solution: 17.8

Exercise: Now try O=C(c1cccnc1)N1N=C(c2ccc(O)cc2)CC1c1cccc(Br)c1 (stereo not given) .
Solution: 39

These entries and their values trace back to ChEMBL document CHEMBL1156771.
